Recorded measurements of melting point, one per entry

## Task Which melting point reading was recorded for the molecule O=c1oc2cc(N3CCNCC3)ccc2cc1-c1cnccc1Cl [Compound 235] ?
## Result 175 to 177 °C

## Task Which melting point reading was recorded for the molecule CCc1cc(C)cn2cc(-c3cc4ccc(N5CCNCC5)cc4oc3=O)nc12 [Compound 334] ?
## Result 198 to 208 °C

## Task Which melting point reading was recorded for the molecule C[C@@H]1CN(c2cc(F)c3cc(-c4cn5cccc(Cl)c5n4)c(=O)oc3c2)CCN1 [Compound 390] ?
## Result 266 to 276 °C

Continuing:
## Task Which melting point reading was recorded for the molecule Cc1csc(-c2cc3ccc(N4CCCN(C)CC4)cc3oc2=O)n1 [Compound 285] ?
## Result 190 to 200 °C

## Task Which melting point reading was recorded for the molecule Cc1cc(F)c2nc(-c3cc4ccc(N5CCN6CCC5CC6)cc4oc3=O)cn2c1 [Compound 561] ?
## Result 287 to 297 °C

## Task Which melting point reading was recorded for the molecule C[C@@H]1CN(c2ccc3cc(-c4cc5ccccn5c4)c(=O)oc3c2)C[C@H](C)N1 [Compound 553] ?
## Result 164 to 167 °C

## Task Which melting point reading was recorded for the molecule Cc1ccn2cc(-c3cc4ccc(N5CCNC6(CCC6)C5)cc4oc3=O)nc2c1 [Compound 595] ?
## Result 226 to 233 °C

## Task Which melting point reading was recorded for the molecule `Cc1cn2cc(-c3cc4ccc(C5=CCNCC5)cc4oc3=O)nc2c(C)n1` ?
## Result 205 to 211 °C

## Task Which melting point reading was recorded for the molecule Cc1cn2cc(-c3cc4ccc(N5CCN(C(C)C)CC5)cc4oc3=O)cc2cn1 [Compound 692] ?
## Result 221 to 225 °C
